Data origin: patent US10065963B2

# pIC50 annotations
Target: PI3Kδ (p110δ/p85α) Recombinant Human Protein (Homo sapiens (Human), UniProt O00329)
Sequence (O00329 whole entry): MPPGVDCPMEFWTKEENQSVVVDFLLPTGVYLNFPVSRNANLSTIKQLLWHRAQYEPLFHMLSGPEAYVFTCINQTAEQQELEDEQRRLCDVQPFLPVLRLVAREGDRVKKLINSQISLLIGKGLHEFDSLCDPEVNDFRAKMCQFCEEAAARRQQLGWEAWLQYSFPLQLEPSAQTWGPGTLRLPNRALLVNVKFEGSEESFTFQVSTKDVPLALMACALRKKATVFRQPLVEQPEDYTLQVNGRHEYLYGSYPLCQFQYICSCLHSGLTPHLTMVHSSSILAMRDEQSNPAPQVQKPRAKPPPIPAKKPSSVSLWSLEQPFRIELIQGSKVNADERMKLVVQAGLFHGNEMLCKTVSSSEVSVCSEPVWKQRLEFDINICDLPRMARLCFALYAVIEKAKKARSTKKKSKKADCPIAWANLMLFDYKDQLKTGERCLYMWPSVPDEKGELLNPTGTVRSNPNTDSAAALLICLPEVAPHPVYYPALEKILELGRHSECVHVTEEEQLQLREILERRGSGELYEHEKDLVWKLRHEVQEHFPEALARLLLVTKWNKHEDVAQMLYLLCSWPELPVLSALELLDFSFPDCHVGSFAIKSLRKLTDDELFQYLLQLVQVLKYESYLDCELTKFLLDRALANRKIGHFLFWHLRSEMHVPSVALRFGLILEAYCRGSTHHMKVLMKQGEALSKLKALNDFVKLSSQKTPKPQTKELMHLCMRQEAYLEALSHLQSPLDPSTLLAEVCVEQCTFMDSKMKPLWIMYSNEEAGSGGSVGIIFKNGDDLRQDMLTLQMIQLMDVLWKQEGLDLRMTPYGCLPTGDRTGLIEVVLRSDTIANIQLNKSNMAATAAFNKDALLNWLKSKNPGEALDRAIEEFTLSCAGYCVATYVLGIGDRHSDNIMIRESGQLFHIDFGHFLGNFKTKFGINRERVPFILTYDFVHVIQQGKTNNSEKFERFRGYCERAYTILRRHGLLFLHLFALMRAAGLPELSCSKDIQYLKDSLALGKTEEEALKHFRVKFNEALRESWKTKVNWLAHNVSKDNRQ
Sequence (P27986 whole entry partner): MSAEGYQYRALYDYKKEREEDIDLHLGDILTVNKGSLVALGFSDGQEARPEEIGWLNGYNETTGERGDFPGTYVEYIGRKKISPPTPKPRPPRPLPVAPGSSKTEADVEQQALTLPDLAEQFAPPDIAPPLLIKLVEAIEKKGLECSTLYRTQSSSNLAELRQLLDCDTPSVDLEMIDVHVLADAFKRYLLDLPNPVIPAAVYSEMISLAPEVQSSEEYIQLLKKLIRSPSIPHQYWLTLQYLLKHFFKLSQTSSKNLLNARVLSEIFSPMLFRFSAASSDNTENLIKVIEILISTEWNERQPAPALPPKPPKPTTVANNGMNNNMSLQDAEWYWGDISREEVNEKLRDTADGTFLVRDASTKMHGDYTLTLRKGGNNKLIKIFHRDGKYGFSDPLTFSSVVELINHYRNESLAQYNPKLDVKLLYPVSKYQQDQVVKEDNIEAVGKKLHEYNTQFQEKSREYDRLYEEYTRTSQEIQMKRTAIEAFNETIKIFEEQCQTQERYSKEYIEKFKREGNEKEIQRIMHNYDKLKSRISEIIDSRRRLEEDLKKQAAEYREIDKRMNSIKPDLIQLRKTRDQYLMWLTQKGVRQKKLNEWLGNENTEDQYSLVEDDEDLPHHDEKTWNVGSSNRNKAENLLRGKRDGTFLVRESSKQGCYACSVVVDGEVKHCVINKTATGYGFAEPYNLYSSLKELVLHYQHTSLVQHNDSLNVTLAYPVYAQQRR
Experiment: PI3Kδ scintillation proximity assay
Assay type: biochemical
Details: 2 μM ATP, 20 μM PIP2
pIC50: −log10 of the molar value. Where a name gives a salt, the structure may show the parent alone.

compound	pIC50
CCOc1c(C(C)NC(=O)c2c(N)nn3cccnc23)cc(Cl)c2cn[nH]c12 (single isomer, unassigned) [Example 3b, trifluoroacetate]	≤ 5.70
Nc1nn2cccnc2c1C(=O)NCc1cc(Cl)c2cncn2c1N1CCS(=O)(=O)CC1 [Example 166, trifluoroacetate salt]	> 5.70

Query: Name the recorded pIC50 for CC(NC(=O)c1c(N)nn2cccnc12)c1cc(Cl)c2cncn2c1N1C[C@@H](O)C[C@H](O)C1 (stereo partly drawn) [Example 150, trifluoroacetate salt] .
Response: > 7.00

Query: Please report the recorded pIC50 for COC(=O)C1CCN(c2c(C(C)NC(=O)c3c(N)nn4cccnc34)cc(Cl)c3cn[nH]c23)C1 (stereo not drawn) [Example 102, trifluoroacetate] .
Response: > 6.30

Query: Dear colleague, I am looking for the recorded pIC50 of the following compound: CC(NC(=O)c1c(N)nn2cccnc12)c1cc(Cl)c2cncn2c1N1CC[S+]([O-])CC1 (stereo not drawn) [Example 37, trifluoroacetate salt]
Response: > 6.30

Query: Entry CC(NC(=O)c1c(N)nn2cccnc12)c1cc(Cl)c2cncn2c1N1CCCC(O)(C(F)(F)F)C1 (single isomer, unassigned) [Example 78A, trifluoroacetate] has what pIC50?
Response: > 6.30

---

Reported IC50 values for a set of compounds
System: Phosphorylated Ribosomal Protein S6 (RPS6) in THP-1 cells
Test: THP-1 RPS6 ELISA assay
Format: cell-based, human
Conditions: Homo sapiens, THP-1, THP-1 cells, 10 nM MCP-1; read-out: PI3Kγ_THP1_RPS6_ELISA IC50
Counter-ions that a name gives are not always drawn.

Previously resolved entries follow.
compound	IC50
Nc1nn2cccnc2c1C(=O)NCc1cc(Cl)c2cncn2c1N1CCCC1 [Example 171, trifluoroacetate salt]	> 1000 nM
CC(NC(=O)c1c(N)nn2cccnc12)c1cc(Cl)c2cn[nH]c2c1N1CC[C@H](NS(C)(=O)=O)C1 (some centres unmarked) [Example 96A, trifluoroacetate]	< 1000 nM
CC(NC(=O)c1c(N)nn2cccnc12)c1cc(Cl)c2cnnn2c1-c1ccccc1 (centres unmarked) [Example 63, trifluoroacetate]	< 500 nM

Query: Fill blank: measured IC50 of the compound COC1CCN(c2c(C(C)NC(=O)c3c(N)nn4cccnc34)cc(Cl)c3cn[nH]c23)C1 (centres unmarked) [Example 91, bis(trifluoroacetate)] is ____.
Response: < 1000 nM

Query: Query (compound): CC(NC(=O)c1c(N)nn2cccnc12)c1cc(Cl)c2ccnn2c1N1CCCS(=O)(=O)CC1 (centres unmarked) [Example 109, trifluoroacetate] ; field requested: IC50
Response: < 500 nM

Query: Fill blank: measured IC50 of the compound COC1CCN(c2c(C(C)NC(=O)c3c(N)nn4cccnc34)cc(Cl)c3cncn23)C1 (centres unmarked) [Example 144, trifluoroacetate salt] is ____.
Response: < 500 nM

Query: IC50 lookup needed for CC(=O)N[C@H]1CCCN(c2c(C(C)NC(=O)c3c(N)nn4cccnc34)cc(Cl)c3cn[nH]c23)C1 (some centres unmarked) [Example 104, trifluoroacetate] , thanks.
Response: < 500 nM

Query: Looking for the measured IC50 of CC(NC(=O)c1c(N)nn2cccnc12)c1cc(Cl)c2cn[nH]c2c1N1CCC(S(=O)(=O)N(C)C)CC1 (centres unmarked) [Example 93] , can you help?
Response: > 1000 nM

Query: Consider the compound CC(NC(=O)c1c(N)nn2cccnc12)c1cc(Cl)c2cncn2c1N1CC[C@@H](F)C1 (some centres unmarked) [Example 75A, bistrifluoroacetate] and give its measured IC50.
Response: < 500 nM

Query: Given the compound CC(NC(=O)c1c(N)nn2cccnc12)c1cc(Cl)c2cncn2c1N1CCS(=O)(=O)CC1 (single isomer, unassigned) [Example 36A] , what is its reported IC50?
Response: < 500 nM

Query: // lookup IC50 for CC(NC(=O)c1c(N)nn2cccnc12)c1cc(Cl)c2cncn2c1-c1cnn(C)c1 (racemic) [Example 140, trifluoroacetate salt]
Response: < 500 nM

Query: Consider the compound CC1CN(c2c(CNC(=O)c3c(N)nn4cccnc34)cc(Cl)c3cncn23)CCS1(=O)=O (racemic) [Example 167, trifluoroacetate salt] and give its measured IC50.
Response: < 500 nM

Query: IC50; subject: Cc1ncc2c(Cl)cc(C(C)NC(=O)c3c(N)nn4cccnc34)c(-c3cccnc3)n12 (racemic) [Example 120, trifluoroacetate salt]
Response: < 500 nM

Query: Can you look up the measured IC50 of CC(NC(=O)c1c(N)nn2cccnc12)c1cc(Cl)c2c(C#N)n[nH]c2c1-c1ccccc1 (centres unmarked) [Example 55, trifluoroacetate] for me?
Response: > 1000 nM

Query: Please give the measured IC50 for this compound: CC(NC(=O)c1c(N)nn2cccnc12)c1cc(Cl)c2cncn2c1N1CCC(F)CC1 (centres unmarked) [Example 66, bistrifluoroacetate]
Response: < 500 nM
